Biological target: GST tagged LXRbeta LBD (ligand binding domain) (Homo sapiens, UniProt P55055)
Construct: purchased Invitrogen pv4658.pps
Sequence (P55055 222-460 limits assumed): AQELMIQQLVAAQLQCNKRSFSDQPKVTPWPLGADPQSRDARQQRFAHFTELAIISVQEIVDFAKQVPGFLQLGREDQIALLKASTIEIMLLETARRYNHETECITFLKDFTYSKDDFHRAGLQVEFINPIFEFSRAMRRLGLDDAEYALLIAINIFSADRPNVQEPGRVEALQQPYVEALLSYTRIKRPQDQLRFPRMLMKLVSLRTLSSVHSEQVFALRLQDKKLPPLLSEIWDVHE
Test: LanthaScreen TR-FRET Liver X Receptor Coactivator Assay, LXR beta-LBD
Type: biochemical
Settings: activity at max dose (efficacy), relative to reference T0901317; read-out: LXR beta act @ max dose (%)
outcomeMeasure: Emax (%)

compound="CC1CCCN1C(=O)c1ccc(N2CCC(C3CCN(C(=O)[C@](O)(c4ccccc4)C(F)(F)F)CC3)CC2)cc1Cl (some centres unmarked) [Example E-25]" valueunit=% numericvalue=88
compound="CC(C)(C(=O)N1CCC(C2CCN(c3ccc(C(=O)N4CCCC4)c(Cl)c3)CC2)CC1)c1ccccc1 [Example E-18]" valueunit=% numericvalue=99
compound="CN(C)C(=O)c1ccc(N2CCC(C3CCN(C(=O)C(O)(C(F)(F)F)C(F)(F)F)CC3)CC2)nc1Cl [Example B-15]" valueunit=% numericvalue=121
compound="O=C(c1ccc(N2CCC(C3CCN(C(=O)[C@](O)(c4ccccc4)C(F)(F)F)CC3)CC2)cc1Cl)N1CCC[C@@H]1CO [Example E-23]" valueunit=% numericvalue=72
compound="CN(C)C(=O)c1ccc(N2CCC(C3CCN(C(=O)C(O)(c4ccccc4)C(F)(F)F)CC3)CC2)cc1Cl (centres unmarked) [Example A-36]" valueunit=% numericvalue=113
compound="CN(C)C(=O)c1ccc(N2CCC(C3CCN(C(=O)C4(c5ccccc5F)CCC4)CC3)CC2)cc1Cl [Example A-73]" valueunit=% numericvalue=113
compound="CCCN(C)C(=O)c1ccc(N2CCC(C3CCN(C(=O)[C@](O)(c4ccccc4)C(F)(F)F)CC3)CC2)cc1Cl [Example E-61]" valueunit=% numericvalue=94
compound="CN(C)C(=O)c1ccc(N2CCC(C3CCN(C(=O)[C@@](O)(c4ccccc4)C(F)(F)C(F)(F)F)CC3)CC2)cc1Cl (single isomer, unassigned) [Example A-43]" valueunit=% numericvalue=128
compound="CN(C)C(=O)c1ccc(N2CCC(C3CCN(C(=O)C(C)(C)c4ccccc4F)CC3)CC2)cc1Cl [Example A-80]" valueunit=% numericvalue=116
compound="CN(C)C(=O)c1c(Cl)cc(N2CCC(C3CCN(C(=O)[C@](O)(c4ccccc4)C(F)(F)F)CC3)CC2)cc1Cl [Example A-33]" valueunit=% numericvalue=86
compound="CN(C)C(=O)c1ccc(N2CCC(C3CCN(C(=O)[C@@](C)(O)c4ccccc4)CC3)CC2)cc1Cl [Example A-53]" valueunit=% numericvalue=108
